- Species: Ovis aries
- testMethodNotes: Displacement of [3H]-SCH23390 from dopamine D1 receptor in lamb brain striatum membranes at 25 uM
- Format: cell membranes
- cond: Membrane
Active and inactive are the calls of the source. The rule behind the calls is not given here.
Reply using exactly one outcome from active, inactive

CC(=O)N[C@@H](CCC(=O)NCCCCCCNC(=O)[C@@H]1CCCN1C(=O)[C@H](Cc1ccc([N+](=O)[O-])cc1)NC(=O)[C@@H](NC(=O)[C@@H]1C=C2c3cccc4[nH]cc(c34)C[C@H]2N(C)C1)C(C)C)C(N)=O :: active
CC(=O)N[C@@H](CCCCNC(=O)CCCCCNC(=O)[C@@H]1CCCN1C(=O)[C@H](Cc1ccc([N+](=O)[O-])cc1)NC(=O)[C@@H](NC(=O)[C@@H]1C=C2c3cccc4[nH]cc(c34)C[C@H]2N(C)C1)C(C)C)C(N)=O :: active
CC(=O)N[C@@H](CCCCNC(=O)[C@@H]1CCCN1C(=O)[C@H](Cc1ccc([N+](=O)[O-])cc1)NC(=O)[C@@H](NC(=O)[C@@H]1C=C2c3cccc4[nH]cc(c34)C[C@H]2N(C)C1)C(C)C)C(N)=O :: active
CC(=O)N[C@@H](CCCCNC(=O)[C@@H](CCCCNC(=O)[C@@H]1CCCN1C(=O)[C@H](Cc1ccc([N+](=O)[O-])cc1)NC(=O)[C@@H](NC(=O)[C@@H]1C=C2c3cccc4[nH]cc(c34)C[C@H]2N(C)C1)C(C)C)NC(C)=O)C(N)=O :: active
CC(=O)N[C@@H](CCC(=O)NCCNC(=O)[C@@H]1CCCN1C(=O)[C@H](Cc1ccc([N+](=O)[O-])cc1)NC(=O)[C@@H](NC(=O)[C@@H]1C=C2c3cccc4[nH]cc(c34)C[C@H]2N(C)C1)C(C)C)C(N)=O :: active

--- query ---
INPUT: What classification did CC(=O)N[C@@H](CCCCNC(=O)[C@H](N)CCCCNC(=O)[C@@H]1CCCN1C(=O)[C@H](Cc1ccc([N+](=O)[O-])cc1)NC(=O)[C@@H](NC(=O)[C@@H]1C=C2c3cccc4[nH]cc(c34)C[C@H]2N(C)C1)C(C)C)C(N)=O end up with in this test?
OUTPUT: inactive
